The reported measurements were obtained from patent EP4711355A1.

Listed compounds paired with reported Purity (%)
test: Long-term accelerated stability test (Test Example 3), sealed in aluminum foil bags; format: physicochemical; settings: 0 day
Where a name gives a salt, the structure may show the parent alone.
measure name: Purity (%)

compound	value units	observed value
Cl.Cl.Cl.Cl.O=C(O)[C@@H](Cc1cccc(CN(CCOc2cccc(C[C@H](C(=O)O)[C@H]3CCNC3)c2)Cc2cccc(C[C@H](C(=O)O)[C@H]3CCNC3)c2)c1)[C@H]1CCNC1 [hydrochloride (1:4) amorphous form]	%	99.8
O=C(O)[C@@H](Cc1cccc(CN(CCOc2cccc(C[C@H](C(=O)O)[C@H]3CCNC3)c2)Cc2cccc(C[C@H](C(=O)O)[C@H]3CCNC3)c2)c1)[C@H]1CCNC1 [hydrochloride (1:1) amorphous form]	%	98.8
O=C(O)[C@@H](Cc1cccc(CN(CCOc2cccc(C[C@H](C(=O)O)[C@H]3CCNC3)c2)Cc2cccc(C[C@H](C(=O)O)[C@H]3CCNC3)c2)c1)[C@H]1CCNC1 [hydrochloride (1:1) crystal form e]	%	99.9
O=C(O)[C@@H](Cc1cccc(CN(CCOc2cccc(C[C@H](C(=O)O)[C@H]3CCNC3)c2)Cc2cccc(C[C@H](C(=O)O)[C@H]3CCNC3)c2)c1)[C@H]1CCNC1 [hydrochloride (1:1) crystal form a]	%	99.9
